The compounds listed here are annotated with their pEC50.
# study.target: human GPR120 (Homo sapiens (Human), UniProt Q5NUL3)
# Sequence (Q5NUL3 whole entry): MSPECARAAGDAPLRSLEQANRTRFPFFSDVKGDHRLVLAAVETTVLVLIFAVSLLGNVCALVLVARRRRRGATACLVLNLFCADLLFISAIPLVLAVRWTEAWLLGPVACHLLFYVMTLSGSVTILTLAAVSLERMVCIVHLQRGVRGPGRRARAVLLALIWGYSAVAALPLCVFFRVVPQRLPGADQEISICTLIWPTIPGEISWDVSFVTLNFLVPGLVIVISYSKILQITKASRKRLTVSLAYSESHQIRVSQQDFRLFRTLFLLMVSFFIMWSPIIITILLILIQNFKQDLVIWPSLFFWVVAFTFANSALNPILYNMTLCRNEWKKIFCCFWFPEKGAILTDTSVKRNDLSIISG
# method: GPR120 pERK AlphaScreen SureFire Assay (human)
# run.conditions: CHO cells stably transfected with short form of human GPR120
API: returns pEC50 as number; meaning -log10 of concentration in mol/L.

Examples with their reported pEC50 follow.
1. CC(C)Oc1cc(F)cc(-c2ccc([C@H]3C[C@@H](OCC(=O)O)C3)cc2)c1 : 5.50
2. O=C(O)CO[C@H]1C[C@@H](c2ccc(-c3cc(Oc4cccc(F)c4)cc(F)c3F)cc2)C1 : 6.89
3. O=C(O)CO[C@H]1C[C@H](c2ccc(-c3cc(Oc4ccccc4)ccc3F)cc2)C1 : 6.39
4. CC(C)Oc1ccc(F)c(-c2ccc([C@H]3C[C@@H](OCC(=O)O)C3)cc2)c1 : 6.28
5. CC(C)Oc1cccc(-c2ccc([C@H]3C[C@@H](OCC(=O)O)C3)cc2)c1F : 5.99

Problem: Please indicate pEC50 recorded for CC(C)Oc1ccc(F)c(-c2ccc(CC3CC(CC(=O)O)C3)cc2)c1 (centres unmarked)
Result: 6.19

Problem: Please indicate pEC50 recorded for CC(C)Oc1cccc(-c2ccc([C@H]3C[C@@H](OCC(=O)O)C3)cc2)c1
Result: 6.23

Problem: Please indicate pEC50 recorded for O=C(O)CO[C@H]1C[C@@H](c2ccc(-c3cc(OC4CCCC4)ccc3F)cc2)C1
Result: 6.39

---

# study.target: human GPR120 (Homo sapiens (Human), UniProt Q5NUL3)
# method: GPR120 pERK AlphaScreen SureFire Assay (human)
# run.conditions: CHO cells stably transfected with short form of human GPR120
The compounds listed here are annotated with their EC50.
The answer consists of two parts: a number and, after it, its unit.

1) O=C(O)CCOC[C@H]1C[C@@H](OCc2cccc(Oc3ccccc3)c2)C1 : 470 nM
2) CC(C)Oc1ccc(F)c(-c2ccc([C@H]3C[C@@H](OCC(=O)O)C3)cc2)c1F : 800 nM
3) Cc1cc(OC(C)C)cc(-c2ccc([C@H]3C[C@@H](OCC(=O)O)C3)cc2)c1 : 430 nM
4) Cc1nc(-c2ccccc2)c(-c2ccc([C@H]3C[C@@H](OCC(=O)O)C3)cc2)s1 : 3460 nM
5) O=C(O)C[C@H]1C[C@H](Oc2ccc(-c3cc(Oc4ccccc4)ccc3F)cc2)C1 : 110 nM
6) O=C(O)CCC[C@H]1C[C@@H](OCc2cccc(Oc3ccccc3)c2)C1 : 430 nM
7) CC(C)Oc1ccc(F)c(-c2ccc(CC3CC(C(=O)O)C3)cc2)c1 (single isomer, unassigned) [Example 48] : 790 nM

Problem: Please indicate EC50 recorded for C[C@]1(CCCOCCC(=O)O)C[C@@H](c2cccc(Oc3ccccc3)c2)C1
Result: 570 nM

---

The compounds listed here are annotated with their pEC50.
# study.target: human GPR120 (Homo sapiens (Human), UniProt Q5NUL3)
# method: GPR120 pERK AlphaScreen SureFire Assay (human)
# run.conditions: CHO cells stably transfected with short form of human GPR120
API: returns pEC50 as number; meaning -log10 of concentration in mol/L.

Examples with their reported pEC50 follow.
1) C[C@]1(CCCOCC(=O)O)C[C@@H](c2cccc(Oc3ccccc3)c2)C1 : 6.13
2) O=C(O)CO[C@H]1C[C@@H](c2ccc(-c3cc(OC4CCCOC4)ccc3F)cc2)C1 (stereo partly shown) : 5.85
3) CC(C)Sc1ncc(C(F)(F)F)cc1-c1ccc([C@H]2C[C@@H](OCC(=O)O)C2)cc1 : 5.58

Problem: Please indicate pEC50 recorded for COc1cc(OC(C)C)cc(-c2ccc([C@H]3C[C@@H](OCC(=O)O)C3)cc2)c1
Result: 5.80
